Tested on: 786-0
Test: NCI tumour cell line growth inhibition, 48 h
Calls of active or inactive are those of the source. No stated cut-off is given here; in the data, active = GI50 up to about 1.1 µM and inactive = higher.
GI50 overview

O=C1CCC(=O)N2CCCCN12
> 100 µM (inactive)
CC(=O)c1c(-c2ccc(Cl)cc2)c(C#N)c(=S)n(C2OC(CO)C(O)C(O)C2O)c1C (stereo unspecified)
63.2 µM (inactive)
C/C(CC(=O)NC1=CC=C(NC(=O)C/C(C)=N\Nc2ccccc2)CC1)=N/Nc1ccccc1
> 100 µM (inactive)

The value of GI50 measured for the compound COC(OC)[C@@H]1OC[C@H](n2cnc3c(N)ncnc32)[C@H]1O turned out to be > 100 µM (inactive)

The value of GI50 measured for the compound Cc1ccc([N+](=O)[O-])cc1NC(=O)/C(CC(=O)c1sc(C(N)=S)nc1C)=N\N turned out to be 40.6 µM (inactive)

The value of GI50 measured for the compound N=C(N)SCCSC(=N)N turned out to be > 100 µM (inactive)

The value of GI50 measured for the compound COc1cc(C(=O)N(C(=S)OCc2ccccn2)c2ccccc2)cc(OC)c1OC turned out to be 77.8 µM (inactive)

The value of GI50 measured for the compound CN1CCN(CC(=O)N2CCCn3c2nc2ccccc2c3=O)CC1 turned out to be > 100 µM (inactive)

The value of GI50 measured for the compound O=C(/C=C/c1ccc(Cl)cc1)c1ccncc1 turned out to be 76.2 µM (inactive)

The value of GI50 measured for the compound Cc1[nH]c2ccccc2c1/C=N/c1ccc(/N=C/c2c(C)[nH]c3ccccc23)cc1 turned out to be 18.8 µM (inactive)

The value of GI50 measured for the compound C/C(CC(=O)Nc1ccc([N+](=O)[O-])cc1)=N\NC(N)=O turned out to be > 100 µM (inactive)

Ref: ChEMBL document CHEMBL1201862
